Reference for the values: PubChem BioAssay (NCATS)

- Test system: CRL-7250
- test: Cytotoxic Profiling of Annotated Libraries Using Quantitative High-Throughput Screening (AID 1296008); also: % is scaled to controls: 0 for no effect and ±100 for the full control effect; nearly all actives have a fitted effect of over 60% in size
- measurement setup: Five cell lines viability, CellTiter-Glo ATP luminescence, 48-72 h; active compounds read low
Results filed as inconclusive are left out.
measured endpoint: max response (%)

[[record]]
molecule = "O=C1NC(Cc2ccc(O)cc2)C(=O)N2CCCC12 (centres undefined)"
measured_endpoint = "max response"
result_unit = "%"
measured_value = -11.1

[[record]]
molecule = "C[C@@H]1O[C@@H](O[C@H]2[C@H](OC(=O)[C@]34CCC(C)(C)C[C@H]3C3=CCC5[C@@]6(C)C[C@H](O)[C@H](O[C@@H]7O[C@H](CO[C@@H]8OC[C@H](O)[C@H](O)[C@H]8O)[C@@H](O)[C@H](O)[C@H]7O)C(C)(C)C6CC[C@@]5(C)[C@]3(C)C[C@H]4O)OC[C@@H](O)[C@@H]2O)[C@H](O)[C@H](O[C@@H]2OC[C@](O)(CO)[C@H]2O)[C@H]1O[C@@H]1OC[C@H](O)[C@H](O[C@@H]2OC[C@@H](O)[C@H](O)[C@H]2O)[C@H]1O (some centres undefined)"
measured_endpoint = "max response"
result_unit = "%"
measured_value = -6.86

[[record]]
molecule = "Cc1cc(C)c(S(=O)(=O)N(Cc2ccc(-c3cccc(S(C)(=O)=O)c3)cc2)Cc2ccc(C(F)(F)F)o2)c(C)c1"
measured_endpoint = "max response"
result_unit = "%"
measured_value = -5.2

[[record]]
molecule = "N[C@@H](CC(=O)N1CCn2c(nnc2C(F)(F)F)C1)Cc1[nH]nc2c(F)c(F)ccc12"
measured_endpoint = "max response"
result_unit = "%"
measured_value = -0.191

[[record]]
molecule = "CCCn1cnc2c(NCc3ccccc3)nc(N[C@H](CC)CO)nc21"
measured_endpoint = "max response"
result_unit = "%"
measured_value = -7.86

[[record]]
molecule = "C[C@]1(O)CC[C@@H]2C(C(=O)O)=CO[C@@H](O[C@@H]3O[C@H](COC(=O)c4ccc(O)cc4)[C@@H](O)[C@H](O)[C@H]3O)[C@@H]21"
measured_endpoint = "max response"
result_unit = "%"
measured_value = 2.99

[[record]]
molecule = "C[C@@H]1O[C@@H](OC[C@H]2O[C@@H](OCC3CCC4CC3C4(C)C)[C@H](O)[C@@H](O)[C@@H]2O)[C@H](O)[C@H](O)[C@H]1O (some centres undefined)"
measured_endpoint = "max response"
result_unit = "%"
measured_value = -0.807

[[record]]
molecule = "O=C(/C=C/c1ccc(O)cc1)OCC1=CC2OC(=O)C3=CO[C@@H](O[C@@H]4O[C@H](CO)[C@@H](O)[C@H](O)[C@H]4O)[C@H]1[C@@H]32 (some centres undefined)"
measured_endpoint = "max response"
result_unit = "%"
measured_value = -2.07

[[record]]
molecule = "CC/C=C\\C[C@H]1C(=O)C=C[C@@H]1CCCCCCCC(=O)O"
measured_endpoint = "max response"
result_unit = "%"
measured_value = 4.76

[[record]]
molecule = "Nc1ncnc2c1ncn2[C@H]1CCCO1"
measured_endpoint = "max response"
result_unit = "%"
measured_value = -0.0341

[[record]]
molecule = "O=C(/C=C/c1ccc(O)cc1)OCC1=C[C@@H](O)[C@@H]2C=CO[C@@H](O[C@@H]3O[C@H](CO)[C@@H](O)[C@H](O)[C@H]3O)[C@H]12"
measured_endpoint = "max response"
result_unit = "%"
measured_value = -2.56

[[record]]
molecule = "COc1c(C)c(OCC=C(C)C)cc2c1C(=O)NC2=O"
measured_endpoint = "max response"
result_unit = "%"
measured_value = -3.35

[[record]]
molecule = "C[C@H]1C[C@H]2[C@@H]3CCC4=CC(=O)C=C[C@]4(C)[C@@]3(F)[C@@H](O)C[C@]2(C)[C@@]1(O)C(=O)COP(=O)(O)O"
measured_endpoint = "max response"
result_unit = "%"
measured_value = 2.73

[[record]]
molecule = "CC(/C=C/C1(O)C2(C)COC1(C)CC(=O)C2)O[C@@H]1O[C@H](CO)[C@@H](O)[C@H](O)[C@H]1O (some centres undefined)"
measured_endpoint = "max response"
result_unit = "%"
measured_value = -2.92

[[record]]
molecule = "C[C@H]1CC[C@@]2(OC1)O[C@H]1CC3C4CC=C5C[C@H](O)C[C@@H](O[C@@H]6O[C@@H](C)[C@H](O)[C@@H](O)[C@H]6O[C@@H]6O[C@@H](C)[C@H](O)[C@@H](O)[C@H]6O)[C@]5(C)C4CC[C@]3(C)[C@H]1[C@@H]2C (some centres undefined)"
measured_endpoint = "max response"
result_unit = "%"
measured_value = -7.49

[[record]]
molecule = "NCc1ccc(OCCCc2sc(-c3ccc4c(c3)/C(=N/Nc3nc5ccccc5s3)CCC4)nc2C(=O)O)cc1"
measured_endpoint = "max response"
result_unit = "%"
measured_value = -14.2

[[record]]
molecule = "COc1cc(C2OCC3C(c4ccc(OC5OC(CO)C(O)C(O)C5O)c(OC)c4)OCC23)ccc1O (centres undefined)"
measured_endpoint = "max response"
result_unit = "%"
measured_value = -7.16

[[record]]
molecule = "CC(CCC1(O)OC2CC3C4CCC5CC(O[C@@H]6O[C@H](CO)[C@@H](O)[C@H](O)[C@H]6O[C@@H]6OC[C@@H](O)[C@H](O)[C@H]6O)C(O)CC5(C)C4CCC3(C)C2C1C)CO[C@@H]1O[C@H](CO)[C@@H](O)[C@H](O)[C@H]1O (some centres undefined)"
measured_endpoint = "max response"
result_unit = "%"
measured_value = -0.157

[[record]]
molecule = "O=C(O[C@@H]1O[C@H](CO)[C@@H](O)[C@H](O)[C@H]1O)c1c(O)cc(O)cc1/C=C/c1ccccc1"
measured_endpoint = "max response"
result_unit = "%"
measured_value = 2.06

[[record]]
molecule = "Clc1ccc(CN[C@H]2CCN(c3ncc(Br)cn3)C2)c(Cl)c1"
measured_endpoint = "max response"
result_unit = "%"
measured_value = -7.31

[[record]]
molecule = "CC1(CO)CC2C(O)C(=O)C3(CO)CC3(C)C2C1 (centres undefined)"
measured_endpoint = "max response"
result_unit = "%"
measured_value = -4.66

[[record]]
molecule = "O=C(CCCCc1ccc2ccccc2c1)C(F)(F)F"
measured_endpoint = "max response"
result_unit = "%"
measured_value = 3.49

[[record]]
molecule = "C=C1C[C@@]23CC[C@@H]4[C@](C)(C(=O)O)CCC[C@@]4(C)C2=CC[C@H]1C3"
measured_endpoint = "max response"
result_unit = "%"
measured_value = -8.72

[[record]]
molecule = "CC1(C)CC2C3=CCC4C5(C)CCC(OC6OC(C(=O)O)C(O)C(O)C6OC6OC(CO)C(O)C(O)C6OC6OC(CO)C(O)C(O)C6O)C(C)(CO)C5CCC4(C)C3(C)CCC2(C)C(OC2OCC(O)C(OC3OC(CO)C(O)C(O)C3O)C2O)C1O (centres undefined)"
measured_endpoint = "max response"
result_unit = "%"
measured_value = 2.95

[[record]]
molecule = "C/C(=C\\CO)CC/C=C(\\C)C(=O)O[C@H]1[C@H](OC2OC=C(C(=O)O)C3CCC(C)(O)C23)O[C@H](CO)[C@@H](O)[C@@H]1O (some centres undefined)"
measured_endpoint = "max response"
result_unit = "%"
measured_value = -10.5

[[record]]
molecule = "CC1=CC(=O)C2C(C)(C)CC(O)CC2(C)C1CO (centres undefined)"
measured_endpoint = "max response"
result_unit = "%"
measured_value = -38.7

[[record]]
molecule = "C[C@]12C=CC(=O)C=C1CC[C@@H]1[C@@H]2[C@@H](O)C[C@@]2(C)[C@H]1CC[C@]2(O)C(=O)COC(=O)CCC(=O)O"
measured_endpoint = "max response"
result_unit = "%"
measured_value = 2.71

[[record]]
molecule = "Cc1cc(Nc2ncc(Cl)c(Nc3ccccc3S(=O)(=O)C(C)C)n2)c(OC(C)C)cc1C1CCNCC1"
measured_endpoint = "max response"
result_unit = "%"
measured_value = -10.6

[[record]]
molecule = "CC1CC(O)CC(C)(C)C1(O)CCO (centres undefined)"
measured_endpoint = "max response"
result_unit = "%"
measured_value = -5.35


###

- Test system: CP217
- test: qHTS profiling for inhibitors of Plasmodium falciparum proliferation (AID 504749); also: nearly all actives have a fitted effect of over 60% in size
- measurement setup: P. falciparum in erythrocytes, SYBR Green DNA, 72 h; series mostly up to 28.7 µM
Records with an inconclusive call do not appear. Active and inactive are the calls of the source. The call rests on the fitted dose curve; in most records, active means well fitted inhibition curve with a large enough effect; inconclusive means small, poorly fitted or top-dose-only effect; inactive means flat fitted curve, though single readings scatter.
Possible outcomes: active, inactive

[[record]]
molecule = "C[C@]12O[C@H](C[C@]1(O)CO)n1c3ccccc3c3c4c(c5c6ccccc6n2c5c31)CNC4=O"
class_label = "active"

[[record]]
molecule = "Nc1ncnc2c1ncn2[C@@H]1O[C@H](COP(=O)(O)OP(=O)(O)OP(=O)(O)O)[C@@H](O)[C@H]1O"
class_label = "inactive"

[[record]]
molecule = "CCOc1ccc2c(c1)C(C)=CC(C)(C)N2"
class_label = "inactive"

[[record]]
molecule = "Cc1ccccc1OCC(O)CNCCOc1ccc(C(N)=O)cc1 (configuration not stated)"
class_label = "inactive"

[[record]]
molecule = "CCN(CC)CCOc1ccc(-c2nc3cc(Cl)ccc3s2)cc1"
class_label = "inactive"

[[record]]
molecule = "CC(=O)Oc1c(C)cc(OCC(O)CNC(C)C)c(C)c1C (configuration not stated)"
class_label = "inactive"

[[record]]
molecule = "CO[C@H](C(=O)[C@@H](O)[C@@H](C)O)C1Cc2cc3cc(O[C@H]4C[C@@H](O[C@H]5C[C@@H](O)[C@H](O)[C@@H](C)O5)[C@@H](O)[C@@H](C)O4)c(C)c(O)c3c(O)c2C(=O)[C@H]1O[C@H]1C[C@@H](O[C@H]2C[C@@H](O[C@H]3C[C@](C)(O)[C@H](O)[C@@H](C)O3)[C@H](O)[C@@H](C)O2)[C@H](O)[C@@H](C)O1 (some centres not stated)"
class_label = "active"

